Tested on: NCI-H196 complex spheroids with HUVEC/MSC, growth % T/C
Experiment: Anticancer human tumor NCI-H196 cell line growth inhibition [Asc];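 also: spheroids exposed to compound for 7 days before measurement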
Settings: curve of first compound; second compound 3.16 µM

molecule | IC50
Cn1ncnc1[C@H]1c2n[nH]c(=O)c3cc(F)cc(c23)N[C@@H]1c1ccc(F)cc1 + Cc1c(S(C)(=O)=O)c(-c2cc(F)cc(N3CCN(c4ccc(NS(=O)(=O)c5ccc(NC(CCN6CCC(C(=O)OCCCP(=O)(O)O)CC6)CSc6ccccc6)c(S(=O)(=O)C(F)(F)F)c5)cc4)CC3)c2)c(-c2ccc(Cl)cc2)n1C(C)C | > 0.1 µM
NC1CCC(NC2CC2c2ccccc2)CC1 (centres undefined) + Cc1c(S(C)(=O)=O)c(-c2cc(F)cc(N3CCN(c4ccc(NS(=O)(=O)c5ccc(NC(CCN6CCC(C(=O)OCCCP(=O)(O)O)CC6)CSc6ccccc6)c(S(=O)(=O)C(F)(F)F)c5)cc4)CC3)c2)c(-c2ccc(Cl)cc2)n1C(C)C | > 0.1 µM
O=C(c1cc(Cc2n[nH]c(=O)c3ccccc23)ccc1F)N1CCN(C(=O)C2CC2)CC1 + Cc1c(S(C)(=O)=O)c(-c2cc(F)cc(N3CCN(c4ccc(NS(=O)(=O)c5ccc(NC(CCN6CCC(C(=O)OCCCP(=O)(O)O)CC6)CSc6ccccc6)c(S(=O)(=O)C(F)(F)F)c5)cc4)CC3)c2)c(-c2ccc(Cl)cc2)n1C(C)C | > 10 µM
CCN1C(C(=O)NC23CCC(C(=O)O)(CC2)CC3)C(c2cccc(Cl)c2F)C2(C(=O)Nc3cc(Cl)ccc32)C12CCCCC2 (centres undefined) + Cc1c(S(C)(=O)=O)c(-c2cc(F)cc(N3CCN(c4ccc(NS(=O)(=O)c5ccc(NC(CCN6CCC(C(=O)OCCCP(=O)(O)O)CC6)CSc6ccccc6)c(S(=O)(=O)C(F)(F)F)c5)cc4)CC3)c2)c(-c2ccc(Cl)cc2)n1C(C)C | 2.85 µM

###

Tested on: NCI-H196 complex spheroids with HUVEC/MSC, growth % T/C
Experiment: Anticancer human tumor NCI-H196 cell line growth inhibition [Asc];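 also: spheroids exposed to compound for 7 days before measurement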;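 as to viability, T/C: 100% = DMSO vehicle control wells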
Conditions: second compound 1 µM; first compound 0.00316 µM; stronger effect = lower value

molecule | system | viability, T/C [%]
COc1c(OCCCN2CCOCC2)ccc2c3n(c(=NC(=O)c4cnc(N)nc4)nc12)CCN3 + CNC(C)C(=O)NC1CN(S(=O)(=O)c2cccc(S(=O)(=O)N3CCC4CCC(C(=O)NC(c5ccccc5)c5ccccc5)N4C(=O)C(NC(=O)C(C)NC)C3)c2)CCC2CCC(C(=O)NC(c3ccccc3)c3ccccc3)N2C1=O | NCI-H196 complex spheroids with HUVEC/MSC, growth % T/C | 2.39
O=C(c1ccc(F)c(F)c1Nc1ccc(I)cc1F)N1CC(O)([C@@H]2CCCCN2)C1 + Cc1c(S(C)(=O)=O)c(-c2cc(F)cc(N3CCN(c4ccc(NS(=O)(=O)c5ccc(NC(CCN6CCC(C(=O)OCCCP(=O)(O)O)CC6)CSc6ccccc6)c(S(=O)(=O)C(F)(F)F)c5)cc4)CC3)c2)c(-c2ccc(Cl)cc2)n1C(C)C | NCI-H196 complex spheroids with HUVEC/MSC, growth % T/C | 84.9

###

viability, T/C: recorded values
Tested on: NCI-H196 complex spheroids with HUVEC/MSC, growth % T/C
Test: Anticancer human tumor NCI-H196 cell line growth inhibition [Asc];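 also: spheroids exposed to compound for 7 days before measurement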;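 as to viability, T/C: 100% = DMSO vehicle control wells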
Settings: second compound 0.949 µM; first compound 0.1 µM; stronger effect = lower value

compound | viability, T/C
C#Cc1c(F)ccc2cc(O)cc(-c3ncc4c(N5CC6CCC(C5)N6)nc(OCC56CCCN5CC(F)C6)nc4c3F)c12 (stereo not given) + CCN1C(C(=O)NC23CCC(C(=O)O)(CC2)CC3)C(c2cccc(Cl)c2F)C2(C(=O)Nc3cc(Cl)ccc32)C12CCCCC2 | 123%
NC1CCC(NC2CC2c2ccccc2)CC1 (stereo not given) + CCN1C(C(=O)NC23CCC(C(=O)O)(CC2)CC3)C(c2cccc(Cl)c2F)C2(C(=O)Nc3cc(Cl)ccc32)C12CCCCC2 | 119%
CCN1CCN(Cc2ccc(Nc3ncc(F)c(-c4cc(F)c5nc(C)n(C(C)C)c5c4)n3)nc2)CC1 + CCN1C(C(=O)NC23CCC(C(=O)O)(CC2)CC3)C(c2cccc(Cl)c2F)C2(C(=O)Nc3cc(Cl)ccc32)C12CCCCC2 | 113%
C=C(F)C(=O)N1CCN(c2nc(OCC3CCCN3C)nc3c2CCN(c2cccc4cccc(Cl)c24)C3)CC1CC#N (stereo not given) + CCN1C(C(=O)NC23CCC(C(=O)O)(CC2)CC3)C(c2cccc(Cl)c2F)C2(C(=O)Nc3cc(Cl)ccc32)C12CCCCC2 | 119%
Cn1ncnc1[C@H]1c2n[nH]c(=O)c3cc(F)cc(c23)N[C@@H]1c1ccc(F)cc1 + CCN1C(C(=O)NC23CCC(C(=O)O)(CC2)CC3)C(c2cccc(Cl)c2F)C2(C(=O)Nc3cc(Cl)ccc32)C12CCCCC2 | 126%
O=C(c1cc(Cc2n[nH]c(=O)c3ccccc23)ccc1F)N1CCN(C(=O)C2CC2)CC1 + CCN1C(C(=O)NC23CCC(C(=O)O)(CC2)CC3)C(c2cccc(Cl)c2F)C2(C(=O)Nc3cc(Cl)ccc32)C12CCCCC2 | 124%
O=C(c1ccc(F)c(F)c1Nc1ccc(I)cc1F)N1CC(O)([C@@H]2CCCCN2)C1 + CCN1C(C(=O)NC23CCC(C(=O)O)(CC2)CC3)C(c2cccc(Cl)c2F)C2(C(=O)Nc3cc(Cl)ccc32)C12CCCCC2 | 120%
C=CC(=O)N1CCN(c2nc(=O)n(-c3c(C)ccnc3C(C)C)c3nc(-c4c(O)cccc4F)c(F)cc23)C(C)C1 (stereo not given) + CCN1C(C(=O)NC23CCC(C(=O)O)(CC2)CC3)C(c2cccc(Cl)c2F)C2(C(=O)Nc3cc(Cl)ccc32)C12CCCCC2 | 110%
CNC(C)C(=O)NC1CN(S(=O)(=O)c2cccc(S(=O)(=O)N3CCC4CCC(C(=O)NC(c5ccccc5)c5ccccc5)N4C(=O)C(NC(=O)C(C)NC)C3)c2)CCC2CCC(C(=O)NC(c3ccccc3)c3ccccc3)N2C1=O (stereo not given) + CCN1C(C(=O)NC23CCC(C(=O)O)(CC2)CC3)C(c2cccc(Cl)c2F)C2(C(=O)Nc3cc(Cl)ccc32)C12CCCCC2 | 2.74%
COc1c(OCCCN2CCOCC2)ccc2c3n(c(=NC(=O)c4cnc(N)nc4)nc12)CCN3 + CCN1C(C(=O)NC23CCC(C(=O)O)(CC2)CC3)C(c2cccc(Cl)c2F)C2(C(=O)Nc3cc(Cl)ccc32)C12CCCCC2 | 85.7%

Attribution: PubChem BioAssay AID1963439
